Each record here notes measured Ki.
TEST SYSTEM: AMPA receptors
ASSAY: Binding of 3H-AMPA to rat cerebral membrane material
EXPERIMENTAL CONDITIONS: displacement of 3H-AMPA, membrane material from rat cerebra, incubated on ice for 60 minutes

| COMPOUND | TEST SYSTEM | OBSERVED MEASUREMENT |
| --- | --- | --- |
| O=C(NCc1ccn(-c2cc3[nH]c(=O)c(=O)[nH]c3cc2[N+](=O)[O-])c1)c1ccncc1 [Example 3, acetate] | AMPA receptors | < 10 µM |

Query string: Report Ki for O=C(O)Cn1c(=O)c(=O)[nH]c2cc([N+](=O)[O-])c(-n3ccc(CN4CCCCC4)c3)cc21 please.
Result string: < 10 µM
